Provide the recorded pKd for the entries that follow.
Target: T1, cyno PRLR (Biacore antigen) (cyno, UniProt A0A2K5WXK1 25-234)
T1 construct: also called cyPRLR
T1 sequence: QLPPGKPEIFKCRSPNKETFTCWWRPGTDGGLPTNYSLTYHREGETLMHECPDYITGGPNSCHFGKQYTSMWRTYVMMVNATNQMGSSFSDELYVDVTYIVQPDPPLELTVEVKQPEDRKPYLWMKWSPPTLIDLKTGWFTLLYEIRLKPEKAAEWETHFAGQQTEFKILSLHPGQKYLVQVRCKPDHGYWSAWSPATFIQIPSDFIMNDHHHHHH
Test: SPR Biacore
Numbers only, as −log10 of the molar value.

Ab53 (antibody, human IgG1, kappa, V domains shown, humanized from Ab7 (back mutations on Ab36); G1; also called Ab4 HC.1b.2 and Ab4 LC.1a) VH: EVQLVQSGAEVKKPGSSVKVSCKASGYTFTSYWIHWVRQAPGQGLEWIGEIDPSDSYTNYNQKFKGRVTITVDKSTSTAYMELSSLRSEDTAVYYCARSFFTNWFAYWGQGTLVTVSS VL: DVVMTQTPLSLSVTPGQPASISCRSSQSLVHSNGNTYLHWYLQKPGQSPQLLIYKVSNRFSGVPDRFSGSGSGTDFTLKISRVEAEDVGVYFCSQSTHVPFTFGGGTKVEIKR	8.11

Q: Reported pKd, binder Ab5 (antibody, V domains shown, murine monoclonal, isotype G2a; also called murine Ab5) VH: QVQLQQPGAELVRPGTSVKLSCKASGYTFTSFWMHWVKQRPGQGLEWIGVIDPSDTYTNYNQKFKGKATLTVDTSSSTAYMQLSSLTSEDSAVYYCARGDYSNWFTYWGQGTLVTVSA VL: DVVMTQTPLSLPVSLGDQASISCRSSQRLVHSNGNTYLHWYLQKPGQSPKLLIYKVSNRFSGVPDRFSGSGSGTDFTLKISRVEAEDLGVYFCSQSTHVPWTFGGGTKLEIK : ____
Ans: 9.15
